assay: Plasma lovastatin by mass spectroscopy, fracture Experiment 2; assay type: in vivo; details: rat, topical, transdermal 0.1 and 1 mg/kg/day, 3 hrs after the last dose, read-out: Plasma lovastatin level

| compound | concentration at 3 h |
| --- | --- |
| CC[C@H](C)C(=O)O[C@H]1C[C@@H](C)C=C2C=C[C@H](C)[C@H](CC[C@@H]3C[C@@H](O)CC(=O)O3)[C@H]21 [lovastatin] | 2 to 3 ng/mL |
